Settings: pH 2.7
Marks after values point to notes of the source that are not given here.

{"MOLECULE": "CC(C)Cn1cc(-c2ccncc2)c(-c2ccc(C#N)s2)n1", "log p": "1.74^[b]"}
{"MOLECULE": "ClCCn1cc(-c2ccncc2)c(-c2cc3ccsc3s2)n1", "log p": "1.7^[b]"}
{"MOLECULE": "CC1(Cn2cc(-c3ccncc3)c(-c3cc4ccsc4s3)n2)CC1(Cl)Cl (centres unmarked)", "log p": "2.62^[b]"}
{"MOLECULE": "CC(C)(C)Cn1cc(-c2ccncc2)c(-c2ccc(F)s2)n1", "log p": "2.11^[b]"}
{"MOLECULE": "Clc1sc(-c2n[nH]cc2-c2ccncc2)c(Cl)c1Cl", "log p": "1.52^[b]"}
{"MOLECULE": "CC(C)(C)Cn1ncc(-c2ccncn2)c1-c1ccc(Cl)s1", "log p": "3.82^[b]"}
{"MOLECULE": "CCC(CC)n1cc(-c2ccncc2)c(-c2sccc2Cl)n1", "log p": "1.78^[b]"}
{"MOLECULE": "CC(C)n1cc(-c2ccnc(N)c2)c(-c2ccc(Cl)s2)n1", "log p": "1.78^[b]"}
{"MOLECULE": "CC(=O)N(C(C)=O)c1cc(-c2cn(C)nc2-c2ccc(Cl)s2)ccn1", "log p": "2.52^[b]"}
{"MOLECULE": "CCC(C)n1cc(-c2ccnc(NC(=O)C(C)(C)O)c2)c(-c2ccc(Cl)s2)n1 (centres unmarked)", "log p": "4.24^[b]"}
{"MOLECULE": "Clc1ccc(-c2nn(C3CCC3)cc2-c2ccncc2)s1", "log p": "2.04^[b]"}
{"MOLECULE": "Clc1ccc(Cn2cc(-c3ccncc3)c(-c3ccc(Cl)s3)n2)s1", "log p": "2.64^[b]"}
{"MOLECULE": "ClCCn1cc(-c2ccncc2)c(-c2ccc(Cl)s2)n1", "log p": "1.65^[b]"}
{"MOLECULE": "CC(C)n1cc(-c2ccnc(NC(=O)c3ccsc3)c2)c(-c2ccc(Cl)s2)n1", "log p": "3.79^[b]"}
{"MOLECULE": "CC(C)Cn1ncc(-c2ccncc2)c1-c1ccc(Br)s1", "log p": "1.91^[b]"}
{"MOLECULE": "CCOCCn1cc(-c2ccnc(NC(C)C)n2)c(-c2ccc(Cl)s2)n1", "log p": "2.56^[b]"}
{"MOLECULE": "CC(C)n1ncc(-c2ccncc2)c1-c1ccc(F)s1", "log p": "1.51^[b]"}
{"MOLECULE": "Clc1ccc(-c2n[nH]c(C3CC3)c2-c2ccncc2)s1", "log p": "1.36^[b]"}
{"MOLECULE": "CSc1ccc(-c2c(-c3ccncc3)cnn2C(C)C)s1", "log p": "1.78^[b]"}
{"MOLECULE": "N#CCn1cc(-c2ccncc2)c(-c2ccc(Cl)s2)n1", "log p": "1.4^[b]"}
{"MOLECULE": "CC(C)n1cc(-c2ccncc2)c(-c2cc(Cl)cs2)n1", "log p": "1.6^[b]"}
{"MOLECULE": "CC(=O)N(C(C)=O)c1cc(-c2cn(C(C)C)nc2-c2ccc(Cl)s2)ccn1", "log p": "3.33^[b]"}
{"MOLECULE": "CC(C)(C)Cn1cc(-c2ccncc2)c(-c2ccc(Br)s2)n1", "log p": "2.46^[b]"}
{"MOLECULE": "ClCCn1cc(-c2ccncc2)c(-c2ccc(Br)s2)n1", "log p": "1.78^[b]"}
{"MOLECULE": "CCn1cc(-c2ccnc(NC(=O)N(C)C)c2)c(-c2ccc(Cl)s2)n1", "log p": "1.72^[b]"}
{"MOLECULE": "O=C1OCCC1n1cc(-c2ccncc2)c(-c2ccc(Br)s2)n1 (centres unmarked)", "log p": "1.52^[b]"}
{"MOLECULE": "CCC(C)n1ncc(-c2ccncc2)c1-c1ccc(F)s1 (centres unmarked)", "log p": "1.69^[b]"}
{"MOLECULE": "Cn1cc(-c2ccnc(NC(=O)C(C)(C)C)c2)c(-c2ccc(Cl)s2)n1", "log p": "2.92^[b]"}
{"MOLECULE": "Clc1ccc(-c2nn(CCc3ccccc3)cc2-c2ccncc2)s1", "log p": "2.3^[b]"}
{"MOLECULE": "Brc1ccc(-c2nn(C3CCCC3)cc2-c2ccncc2)s1", "log p": "2.37^[b]"}
{"MOLECULE": "CC(C)CC(=O)Nc1cc(-c2cn(C(C)C)nc2-c2ccc(Cl)s2)ccn1", "log p": "3.63^[b]"}
{"MOLECULE": "CC(C)n1cc(-c2ccnc(NC(=O)C(C)(C)O)c2)c(-c2ccc(Cl)s2)n1", "log p": "3.17^[b]"}
{"MOLECULE": "CCC(C)n1cc(-c2ccnc(C(=O)NC(C)C)c2)c(-c2ccc(Cl)s2)n1 (centres unmarked)", "log p": "4.82^[b]"}
{"MOLECULE": "Fc1ccc(-c2nn(CCCl)cc2-c2ccncc2)s1", "log p": "1.45^[b]"}
{"MOLECULE": "ClCCn1cc(-c2ccncc2)c(-c2sccc2Cl)n1", "log p": "1.22^[b]"}
{"MOLECULE": "Fc1ccc(-c2nn(CC(F)F)cc2-c2ccncc2)s1", "log p": "1.34^[b]"}
{"MOLECULE": "CCC(CC)n1cc(-c2ccncc2)c(-c2cc3ccsc3s2)n1", "log p": "2.3^[b]"}
{"MOLECULE": "CC(C)=CCn1cc(-c2ccncc2)c(-c2cc3ccsc3s2)n1", "log p": "1.69^[b]"}
